Experiment: Solution Degradation Studies measured by compound unchanged at pH 0.4=50%1 M HCl/50% acetonitrile at 8 hours
Assay type: ADME
Conditions: 50% 1 M HCl / 50% acetonitrile solution, read-out: Unchanged

{"Cpd Smiles": "CC(C)c1cccc(C(C)C)c1OC(=O)NS(=O)(=O)Oc1c(C(C)C)cccc1C(C)C", "remaining at 8 h (%)": 68}

---

Below is a list of entries, each paired with its recorded remaining at 0 h value.
Assay: Solution Degradation Studies measured by compound unchanged at pH 0.4=50% 1 M HCl/50% acetonitrile at 0 hours
Assay type: ADME
Conditions: 50% 1 M HCl / 50% acetonitrile solution, read-out: Unchanged
Property Measured: remaining at 0 h (%)

{"Cpd Smiles": "CC(C)c1cccc(C(C)C)c1OC(=O)NS(=O)(=O)Oc1c(C(C)C)cccc1C(C)C", "Units": "%", "Observed Measurement": 95}
{"Cpd Smiles": "Cc1cccc(C)c1OC(=O)NS(=O)(=O)Oc1c(C(C)C)cccc1C(C)C", "Units": "%", "Observed Measurement": 93}
{"Cpd Smiles": "CC(C)c1cccc(C(C)C)c1OS(=O)(=O)NC(=O)Oc1c(C(C)(C)C)cccc1C(C)(C)C", "Units": "%", "Observed Measurement": 100}
